Listed below: log10 rat_CLt values for each entry.
assay.comment: Evaluation of total body clearance (CLtot), intravenous administration
Assay type: in vivo, Sprague-Dawley (SD)
details: rat (SD), intravenous administration 0.5-10 mg/kg; CLtot = dose/AUC
Please be aware that the numbers have been log10-transformed from rat_CLt in mL/min/kg.

Sample answers from the record:
{"compound": "COc1ccc(S(=O)(=O)N(CC(C)C)CC(O)C(Cc2ccc(N(CCCc3sc4c(c3C(=O)O)CC(C)(C)CC4)Cc3ccccc3)cc2)NC(=O)OC2COC3(C)OCCC23)cc1 (centres unmarked) [Compound I-371]", "log10 rat_CLt": 0.67}
{"compound": "Cc1cc(Oc2ccc(CC(NC(=O)OC3COC4OCCC34)C(O)CN(CC(C)C)S(=O)(=O)c3ccc4c(c3)OCO4)cc2)ccc1-c1sc2c(c1C(=O)O)CC(C)(C)CC2 (centres unmarked) [Compound I-835]", "log10 rat_CLt": 0.21}
{"compound": "COc1ccc(S(=O)(=O)N(CC(C)C)CC(O)C(Cc2ccccc2)NC(=O)OC2COC3(COC(=O)NCc4sc5c(c4C(=O)O)CC(C)(C)CC5)OCCC23)cc1 (centres unmarked) [Compound I-780]", "log10 rat_CLt": 0.35}
{"compound": "COc1ccc(S(=O)(=O)N(CC(C)C)CC(O)C(Cc2ccc(OCc3ncccc3-c3sc4c(c3C(=O)O)CC(C)(C)CC4)cc2)NC(=O)OC2COC3OCCC23)cc1 (centres unmarked) [Compound I-827]", "log10 rat_CLt": 0.62}

Moving on to another compound below.
According to the records, this compound CC(C)CN(CC(O)C(Cc1ccc(OCc2ccccc2-c2sc3c(c2C(=O)O)CC(C)(C)CC3)cc1)NC(=O)OC1COC2(C)OCCC12)S(=O)(=O)c1ccc2c(c1)OCO2 (centres unmarked) [Compound I-132] displays log10 rat_CLt of -0.42

// data source = patent US20170253607A1
